The reader will find reported viability at 30 µM values listed item by item below.
# EXPERIMENT NOTES: Cytotoxicity against human SNU-C4 HiBiT-PXR KI cell assessed as cell viability at 30 uM incubated for 24 hrs by celltiter-glo luminescent assay relative to control
# Type: functional
# PARTICULARS: read-out: Activity

Reference set, count: 5
# ITEM SMILES, viability at 30 µM
records = [
    ("CCC[C@H](CC)Oc1ccc(C(=O)OC)cc1NC(=O)c1nnn(-c2cc(OC)ccc2OC)c1C", "95.6%"),
    ("CCC[C@H](CC)Oc1ccc(C(C)(C)C)cc1NC(=O)c1nnn(-c2cc(OC)c(OCCCCCCOCCOCC(=O)N[C@H](C(=O)N3C[C@H](O)C[C@H]3C(=O)NCc3ccc(-c4scnc4C)cc3)C(C)(C)C)cc2OC)c1C", "97.4%"),
    ("CCC[C@H](CC)Oc1ccc(C(=O)N[C@H](C(=O)N2C[C@H](O)C[C@H]2C(=O)NCc2ccc(-c3scnc3C)cc2)C(C)(C)C)cc1NC(=O)c1nnn(-c2cc(OC)ccc2OC)c1C", "99.9%"),
    ("CCC[C@H](CC)Oc1ccc(C(=O)NCCOCCOCCOCCOCC(=O)N[C@H](C(=O)N2C[C@H](O)C[C@H]2C(=O)NCc2ccc(-c3scnc3C)cc2)C(C)(C)C)cc1NC(=O)c1nnn(-c2cc(OC)ccc2OC)c1C", "100%"),
    ("CCC[C@H](CC)Oc1ccc(C(C)(C)C)cc1NC(=O)c1nnn(-c2cc(OC)ccc2OC)c1C", "95.7%"),
]

Proceed to the following item.
Query: Quick check: viability at 30 µM of `CC(=O)N[C@H](C(=O)N1C[C@H](O)C[C@H]1C(=O)NCc1ccc(-c2scnc2C)cc1)C(C)(C)C` ?
Result: 99.6%
